meta.source: patent US20220088002A1

Tested on: HcoV-229E
Test: Effect against HCoV-229E in Vero E6 cells (MTT cell viability)
Assay type: cell-based, human coronavirus 229E
Conditions: Human coronavirus 229E, Vero C1008; HcoV-229E-infected Vero E6 cells, 96 hours, MTT, n=3, mean±SD
Recorded Endpoint: EC50
Just so you know, I need the unit written after the number.

Q: Query: EC50; subject: `Cc1ccc(C)c(-n2ncc(-c3cc(C(=O)O)c4cc(Br)ccc4n3)c2C)c1`
A: 0.141 µM
